Consider the following molecules; for each one, report its EC50.
# Test system: HIV-2(ROD)
# method_notes: Inhibition of HIV-2 (ROD)-induced cytopathicity (giant cell formation) in CEM cells
# Assay type: cell-based
# recorded_conditions: read-out: EC50 HIV-2 (concentration required to inhibit HIV-induced giant cell formation by 50%); HIV-2, CEM cell cultures
Answers are plain numbers, in µM.

Example results:
| molecule | target_or_test_system | unit_info | EC50 |
| --- | --- | --- | --- |
| CCCCc1ccc(CNCc2c(O)cc3c(c2O)-c2cc(ccc2O)C2NC(=O)C4NC(=O)C5NC(=O)C(Cc6ccc(c(Cl)c6)Oc6cc4cc(c6O)Oc4ccc(cc4Cl)C(O)C(NC2=O)C(=O)NC3C(=O)NC)NC(=O)C(NC(=O)OC(C)(C)C)c2ccc(O)c(c2)Oc2cc(O)cc5c2)cc1 (stereo not shown) [Compound 47] | HIV-2(ROD) | µM | 12 |
| COC(=O)C1NC(=O)C2NC(=O)C(NC(=O)C(NC(=O)OC(C)(C)C)c3cc(Oc4ccc(CC(NC(=O)OCc5ccccc5)C(=O)O)cc4Cl)c(O)c(c3)Oc3ccc(cc3Cl)C2O)c2ccc(O)c(c2)-c2c1cc(O)c(CNC1C3CC4CC(C3)CC1C4)c2O (stereo not shown) [Compound 53] | HIV-2(ROD) | µM | 11 |

Value sought for every listed molecule: EC50.
1. NC1C(=O)NC2Cc3ccc(c(Cl)c3)Oc3cc4cc(c3O)Oc3ccc(cc3Cl)C(O)C3NC(=O)C(NC(=O)C4NC(=O)C(NC2=O)c2cc(O)cc(c2)Oc2cc1ccc2O)c1ccc(O)c(c1)-c1c(O)cc(O)cc1C(C(=O)NC1CC2CCC1C2)NC3=O (stereo not shown) [Compound 162]
2. CN[C@H](CC(C)C)C(=O)N[C@H]1C(=O)N[C@@H](CC(N)=O)C(=O)N[C@H]2C(=O)N[C@H]3C(=O)N[C@H](C(=O)N[C@H](C(=O)O)c4cc(O)cc(O)c4-c4cc3ccc4O)[C@H](O)c3ccc(c(Cl)c3)Oc3cc2cc(c3O)Oc2ccc(cc2Cl)[C@H]1O [Vancomycin aglycon]

## Result
11
250

----------
# System: HIV-1 (IIIB)
# method_notes: Inhibition of HIV-1 (IIIB)-induced cytopathicity (giant cell formation) in CEM cells
# Format: cell-based
# recorded_conditions: read-out: EC50 HIV-1 (concentration required to inhibit HIV-induced giant cell formation by 50%); HIV-1, CEM cell cultures
metric: pEC50
One number for each entry, as −log10 of the molar value.

Value sought for every listed compound: pEC50.
1. CCCCCCCCCCNCc1c(O)cc2c(c1O)-c1cc(ccc1O)C1NC(=O)C3NC(=O)C4NC(=O)C(Cc5ccc(c(Cl)c5)Oc5cc3cc(c5O)Oc3ccc(cc3Cl)C(O)C(NC1=O)C(=O)NC2C(=O)NCCCN1CCCCC1C)NC(=O)C(N)c1ccc(O)c(c1)Oc1cc(O)cc4c1 (stereo not drawn)
2. CCCCc1ccc(CNCc2c(O)cc3c(c2O)-c2cc(ccc2O)C2NC(=O)C4NC(=O)C(CC(N)=O)NC(=O)C(NC(=O)C(CC(C)C)NC)C(O)c5ccc(c(Cl)c5)Oc5cc4cc(c5OC4OC(CO)C(O)C(O)C4OC4CC(C)(N)C(O)C(C)O4)Oc4ccc(cc4)C(OC4CC(C)(N)C(O)C(C)O4)C(NC2=O)C(=O)NC3C(=O)NC)cc1 (stereo not drawn)
3. CCCCc1ccc(CNC2C(Oc3c4cc5cc3Oc3ccc(cc3Cl)C(O)C3NC(=O)C(NC(=O)C5NC(=O)C5NC(=O)C(Cc6ccc(cc6)O4)NC(=O)C(NC)c4ccc(O)c(c4)Oc4cc(O)c(Cl)c5c4)c4ccc(O)c(c4)-c4c(O)cc(O)cc4C(C(=O)NCCCN(C)C)NC3=O)OC(C(=O)NCCCN(C)C)C(O)C2O)cc1 (stereo not drawn)

## Result
[5.89, 5.29, 4.92]
